Where these numbers come from: ChEMBL document CHEMBL1123180

- Test system: Rattus norvegicus
- ASSAY COMMENT: Ability to lower blood sugar level at the dose of 10 mg/kg in fasted rats, by using glucose tolerance test(GTT)
- Assay type: functional
// Blood sugar lowering lookup, one value per entry
Could you write the number and then its unit?

Known results for compounds:
{"columns": ["COMPOUND", "EXPERIMENTAL READOUT", "MEASUREMENT"],
 "data": [
  ["O=C1NC(=O)C(c2cccc(C(F)(F)F)c2)O1 (stereo not given)", "Blood sugar lowering", "17%"],
  ["Cc1ccccc1C1OC(=O)NC1=O (stereo not given)", "Blood sugar lowering", "14%"],
  ["O=C1NC(=O)C(c2ccccc2)O1 (stereo not given) [PEMOLINE DIONE]", "Blood sugar lowering", "13%"],
  ["COc1cccc(OC)c1C1OC(=O)NC1=O (stereo not given)", "Blood sugar lowering", "12%"],
  ["COc1ccc(Cl)c(C)c1C1OC(=O)NC1=O (stereo not given)", "Blood sugar lowering", "12%"]
]}

Return reported Blood sugar lowering for target or system Rattus norvegicus, item COc1c(C)cc(Cl)cc1C1OC(=O)NC1=O (stereo not given) . 17%

Return reported Blood sugar lowering for target or system Rattus norvegicus, item Cc1cccc(C)c1C1OC(=O)NC1=O (stereo not given) . 13%

Return reported Blood sugar lowering for target or system Rattus norvegicus, item COc1c(Cl)cc(F)cc1C1OC(=O)NC1=O (stereo not given) . 15%

Return reported Blood sugar lowering for target or system Rattus norvegicus, item O=C1NC(=O)C(c2ccccc2Cl)O1 (stereo not given) . 11%
